Source of measurements: PubChem BioAssay AID434951

target: Hypoxia-inducible factor 1-alpha (Homo sapiens); test: activators of HIF1alpha nuclear accumulation, confirmation, imaging, fluorescence, U2OS GFP-HIF1alpha (AID 434951); settings: U2OS GFP-HIF1alpha nuclear intensity, high-content imaging
Calls of active or inactive are those of the source.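 How the source made its calls: active means a fitted half-maximal concentration EC50 for the rise in nuclear signal no higher than ten times the top dose tested; inconclusive means flat fit with activity between 30% and 70%, or unusable fit; inactive means EC50 beyond ten times the top dose.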
Hello, when you answer, please use one of the following outcomes: true (1) = active, false (0) = inactive

Please indicate how the test categorized COc1ccc(NC(=O)C(=O)NNC(=O)c2ccc(Cl)cc2Cl)cc1 .
false (0)

Please indicate how the test categorized CC(C)Cn1c(/C=N/Nc2nc3ccccc3[nH]2)nc2ccccc21 .
true (1)

Please indicate how the test categorized COc1ccc(N2C(=O)[C@@H]3C(c4cccnc4)=NO[C@@H]3C2=O)cc1 .
false (0)

Please indicate how the test categorized Cc1ccc(NC2CCCN(C(=O)C3CCCCC3)C2)cc1C (stereo not drawn) .
false (0)

Please indicate how the test categorized CN(/N=C/c1c[nH]c2ccccc12)c1cnn(-c2ccc(F)c(Cl)c2)c(=O)c1Cl .
false (0)

Please indicate how the test categorized Cn1c(N/N=C/c2cc3ccccc3nc2Cl)nc2ccccc21 .
true (1)

Please indicate how the test categorized Cc1oc(-c2ccc(Cl)cc2)nc1CS(=O)CC(=O)NCCN1CCCCCC1 (stereo not drawn) .
false (0)

Please indicate how the test categorized COc1cc(OC)c2nc(C)c3c(c2c1)N(c1ccc(O)cc1)CC3 .
false (0)

* * *

target: Hypoxia-inducible factor 1-alpha (Homo sapiens) (UniProt Q16665); assay: activators of HIF1alpha nuclear accumulation, confirmation, imaging, fluorescence, U2OS GFP-HIF1alpha (AID 434951); conditions: U2OS GFP-HIF1alpha nuclear intensity, high-content imaging
Sequence (Q16665 whole entry, looked up): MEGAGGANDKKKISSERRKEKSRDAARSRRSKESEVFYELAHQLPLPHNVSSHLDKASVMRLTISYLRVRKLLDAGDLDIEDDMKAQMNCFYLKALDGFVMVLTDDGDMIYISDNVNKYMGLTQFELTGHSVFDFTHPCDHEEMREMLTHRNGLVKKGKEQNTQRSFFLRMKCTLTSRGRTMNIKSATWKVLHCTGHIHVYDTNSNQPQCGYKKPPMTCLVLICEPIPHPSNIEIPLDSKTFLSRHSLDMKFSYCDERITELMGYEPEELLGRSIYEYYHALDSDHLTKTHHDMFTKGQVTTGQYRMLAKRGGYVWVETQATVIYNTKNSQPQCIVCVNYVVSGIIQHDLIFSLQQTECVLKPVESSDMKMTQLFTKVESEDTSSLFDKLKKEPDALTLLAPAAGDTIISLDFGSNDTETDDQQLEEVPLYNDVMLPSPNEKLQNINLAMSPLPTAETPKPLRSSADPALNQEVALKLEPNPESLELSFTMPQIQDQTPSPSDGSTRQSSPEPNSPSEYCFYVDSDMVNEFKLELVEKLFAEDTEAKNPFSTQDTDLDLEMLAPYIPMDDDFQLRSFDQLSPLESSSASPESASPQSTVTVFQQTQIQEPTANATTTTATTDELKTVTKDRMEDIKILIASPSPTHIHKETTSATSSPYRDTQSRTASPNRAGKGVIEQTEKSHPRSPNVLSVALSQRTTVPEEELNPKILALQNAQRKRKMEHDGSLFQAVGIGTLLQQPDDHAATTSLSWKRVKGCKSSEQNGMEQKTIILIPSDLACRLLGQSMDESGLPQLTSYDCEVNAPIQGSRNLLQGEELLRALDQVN
The source made the active and inactive calls.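 Rule for the calls: active = a fitted half-maximal concentration EC50 for the rise in nuclear signal no higher than ten times the top dose tested; inconclusive = flat fit with activity between 30% and 70%, or unusable fit; inactive = EC50 beyond ten times the top dose.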
Hello, when you answer, please use one of the following outcomes: active, inactive

Please indicate how the test categorized Cc1nnc(-c2ccccc2)nc1N(C)C .
inactive

Please indicate how the test categorized COc1cnc(-c2ccccn2)nc1N(C)C .
active

Please indicate how the test categorized O=C(N/N=C/c1c(O)ccc2ccccc12)c1[nH]ncc1Br .
active

Please indicate how the test categorized CCN(CC)S(=O)(=O)c1ccc(N/N=C/c2cc(OC)ccc2O)nc1 .
active

Please indicate how the test categorized Cc1cc(/C=N/n2c(COc3ccccc3)nc3ccccc3c2=O)c(O)c([N+](=O)[O-])c1 .
active

Please indicate how the test categorized C=CCNc1nc(-c2ccccn2)nnc1-c1ccccc1 .
active

Please indicate how the test categorized C=CCNC(=S)N/N=C(\C)c1ccccn1 .
active

Please indicate how the test categorized COc1ccc(NC(=O)C2CCN(S(=O)(=O)c3ccc4c(c3)CC(C)N4C(C)=O)CC2)cc1OC (stereo not given) .
inactive

Please indicate how the test categorized CC(C)Cc1nnc(NC(=O)CCC(=O)N2CCC3(CC2)OCCO3)s1 .
inactive

Please indicate how the test categorized Cc1ccc(C)c(S(=O)(=O)N2CCN(Cc3ccc(O)c4ncccc34)CC2)c1 .
active

Please indicate how the test categorized COc1cccc(C(=O)SC2=NCCS2)c1 .
inactive

Please indicate how the test categorized CC(C)CC1NC(=O)N(Cc2cc(=O)n3ccsc3n2)C1=O (stereo not given) .
inactive

Please indicate how the test categorized CC(C)NC(=S)NN=C1c2ccccc2-c2ccccc21 .
inactive

Please indicate how the test categorized CCOC(=O)c1c(NC(=O)CN2C(=O)NC3(CCC(C)CC3)C2=O)sc(C)c1-c1ccc(C)cc1 (stereo not given) .
active

Please indicate how the test categorized Cc1cc(C)cc(NC(=O)c2cccc(NC(=O)c3ccco3)c2)c1 .
inactive

Please indicate how the test categorized CCCn1c(SCC(=O)Nc2ccccc2CC)nnc1C(C)C .
inactive

Please indicate how the test categorized CS(=O)(=O)n1nc(-c2ccccc2)nc1NCc1ccco1 .
inactive

Please indicate how the test categorized O=C1C(=O)c2ccccc2C(O)=C1c1cccc([N+](=O)[O-])c1 .
inactive

Please indicate how the test categorized CCOC(=O)C1=C(c2ccccc2)NC(=O)NC1c1ccc(O)c(Cl)c1 (stereo not given) .
active

Please indicate how the test categorized CCCCNC(=S)Nc1ccc2cn[nH]c2c1 .
inactive

Please indicate how the test categorized COc1ccc(NC(=O)CCC(=O)N(Cc2ccc(OC)c(OC)c2)c2nccs2)cc1 .
inactive

Please indicate how the test categorized ON=C1c2cc(OCCN3CCCCC3)ccc2-c2ccc(OCCN3CCCCC3)cc21 .
active

Please indicate how the test categorized Cc1ccc(C)c(-n2nnnc2Sc2nnnn2-c2ccccc2)c1 .
inactive

Please indicate how the test categorized O=C(NCCCN1CCOCC1)c1cc(-c2ccccc2)on1 .
active

Please indicate how the test categorized O=C(N/N=C\c1c(O)ccc2ccccc12)c1ccc(Cn2cccn2)o1 .
active

Please indicate how the test categorized O=C(N/N=C/c1ccccc1O)c1cccc(C(F)(F)F)c1 .
active

Please indicate how the test categorized COc1ccc(/C=N/NC(=O)c2ccoc2C)cc1O .
inactive

Please indicate how the test categorized S=C(Nc1ccc(Cl)cc1)Nc1ccc2cn[nH]c2c1 .
inactive

Please indicate how the test categorized CCOc1ccc(N2CC(C(=O)Nc3ccccc3C(=O)NC3CC3)CC2=O)cc1 (stereo not given) .
inactive

Please indicate how the test categorized Cc1nnc(N/N=C/c2ccccn2)[nH]c1=O .
active

Please indicate how the test categorized Cc1cccnc1Nc1nc(-c2ccccn2)cs1 .
active

Please indicate how the test categorized CC(=O)OCCCNc1cc(Sc2ccc(C)cc2)c2nonc2c1[N+](=O)[O-] .
inactive

Please indicate how the test categorized Oc1c(C=C2N=c3ccccc3=N2)sc(=S)n1-c1ccccc1 .
inactive

Please indicate how the test categorized COc1ccc(CCNC(=O)CC(NC(=O)c2ccccc2Cl)c2ccccc2)cc1 (stereo not given) .
inactive

Please indicate how the test categorized CCC(=O)NC(=S)Nc1ccc(NC(=O)c2cccc([N+](=O)[O-])c2C)cc1 .
inactive

Please indicate how the test categorized Cc1cc(OC(C)C(=O)NNC(=O)Nc2ccc(F)cc2F)cc(C)c1Cl (stereo not given) .
inactive

Please indicate how the test categorized COc1cccc(-c2cc(C(F)(F)F)n3nc(C(=O)N4CCC5(CC4)OCCO5)cc3n2)c1 .
inactive

Please indicate how the test categorized Cc1ccc(C(=O)Nc2ccc3c(c2)nc(CCNC(=O)c2ccco2)n3C)cc1 .
inactive

Please indicate how the test categorized CN(C)c1ccc(S(=O)(=O)NCC(=O)OCC(=O)Nc2cc(Cl)cc(Cl)c2)cc1[N+](=O)[O-] .
inactive

Please indicate how the test categorized Nc1ccc(C(=O)Nc2ccc3nc(-c4ccncc4)[nH]c3c2)cc1 .
inactive

* * *

biological target: Hypoxia-inducible factor 1-alpha (Homo sapiens); test: activators of HIF1alpha nuclear accumulation, confirmation, imaging, fluorescence, U2OS GFP-HIF1alpha (AID 434951); settings: U2OS GFP-HIF1alpha nuclear intensity, high-content imaging
Activity calls are given as the source filed them.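 How the source made its calls: active means a fitted half-maximal concentration EC50 for the rise in nuclear signal no higher than ten times the top dose tested; inconclusive means flat fit with activity between 30% and 70%, or unusable fit; inactive means EC50 beyond ten times the top dose.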
Hello, when you answer, please use one of the following outcomes: true (active), false (inactive)

Please indicate how the test categorized O=C(CC1SC(N2CCCC2)=NC1=O)Nc1ccc(C(=O)Nc2ncccc2O)cc1 (configuration not stated) .
true

Please indicate how the test categorized O=C(NCc1nc2ccccc2[nH]1)c1c(F)c(F)c(F)c(F)c1F .
false

Please indicate how the test categorized Cc1ccccc1NC(=O)CN(C)S(=O)(=O)c1ccc(-c2ccc(=O)[nH]n2)s1 .
false

Please indicate how the test categorized CC(C)C(=O)N1CCN(c2ccc(NC(=O)COc3ccccc3[N+](=O)[O-])cc2)CC1 .
false

Please indicate how the test categorized c1ccc(CSc2nnc(-c3ccco3)o2)cc1 .
false

Please indicate how the test categorized COc1ccc(C)cc1NC(=O)c1ccc(N(C)S(C)(=O)=O)cc1 .
false

Please indicate how the test categorized NS(=O)(=O)c1ccc(CNC(=O)c2csc3c2CCCC3)cc1 .
false

Please indicate how the test categorized CN(C)S(=O)(=O)c1cccc(NC(=S)N/N=C/c2cc(Br)ccc2O)c1 .
true

Please indicate how the test categorized COc1cc2ccccc2cc1C(=O)NNC(=O)c1ccccc1O .
false

Please indicate how the test categorized CCn1ncc(C2=NOC(C(=O)Nc3ccc4c(c3)OCO4)C2)c1C (configuration not stated) .
false

Please indicate how the test categorized Cc1ccc(CNC(=O)NC2CCCCC2)cc1 .
false

Please indicate how the test categorized Cc1nc(C(=O)Nc2ccc(Cl)cc2Cl)nn1-c1cc(OC(C)C)c(Cl)cc1Cl .
false

Please indicate how the test categorized CCOC(=O)c1cc2c(ccn2C)n1CC(=O)N1CCN(c2ccccc2)CC1 .
false

Please indicate how the test categorized O=C(COc1ccccc1)N(Cc1cccc(F)c1)C1CCS(=O)(=O)C1 (configuration not stated) .
false

Please indicate how the test categorized CC(=O)NCCC(=O)Nc1cc(S(=O)(=O)N2CCOCC2)ccc1N1CCOCC1 .
false

Please indicate how the test categorized CCC(=O)n1nc(NCc2ccc(OC)c(OC)c2)nc1NCc1ccc(OC)c(OC)c1 .
false

Please indicate how the test categorized CC(C)C(=O)NC(c1ccco1)c1ccc2cccnc2c1O (configuration not stated) .
true

Please indicate how the test categorized COc1cnc(-c2ccccn2)nc1NC(C)C .
true

Please indicate how the test categorized C=CCOc1ccc(/C=C2\SC(=Nc3cccnc3)NC2=O)cc1 .
false

Please indicate how the test categorized COc1cc(CC(=O)Nc2ccc(Cl)c(C(F)(F)F)c2)cc(OC)c1OC .
false

Please indicate how the test categorized CN(CCS(=O)(=O)c1ccc(Cl)cc1)Cc1cccnc1 .
false

Please indicate how the test categorized COc1ccc(N/N=C(/N=Nc2nc(C)cc(=O)[nH]2)c2ccccc2)cc1 .
true
